Biological target: Ba/F3-KIF5B-RET cell (Homo sapiens)
Construct: fused on or other part: P33176 (Kinesin-1 heavy chain)
Sequence (P07949 whole entry, change not shown, the tested form may be a part): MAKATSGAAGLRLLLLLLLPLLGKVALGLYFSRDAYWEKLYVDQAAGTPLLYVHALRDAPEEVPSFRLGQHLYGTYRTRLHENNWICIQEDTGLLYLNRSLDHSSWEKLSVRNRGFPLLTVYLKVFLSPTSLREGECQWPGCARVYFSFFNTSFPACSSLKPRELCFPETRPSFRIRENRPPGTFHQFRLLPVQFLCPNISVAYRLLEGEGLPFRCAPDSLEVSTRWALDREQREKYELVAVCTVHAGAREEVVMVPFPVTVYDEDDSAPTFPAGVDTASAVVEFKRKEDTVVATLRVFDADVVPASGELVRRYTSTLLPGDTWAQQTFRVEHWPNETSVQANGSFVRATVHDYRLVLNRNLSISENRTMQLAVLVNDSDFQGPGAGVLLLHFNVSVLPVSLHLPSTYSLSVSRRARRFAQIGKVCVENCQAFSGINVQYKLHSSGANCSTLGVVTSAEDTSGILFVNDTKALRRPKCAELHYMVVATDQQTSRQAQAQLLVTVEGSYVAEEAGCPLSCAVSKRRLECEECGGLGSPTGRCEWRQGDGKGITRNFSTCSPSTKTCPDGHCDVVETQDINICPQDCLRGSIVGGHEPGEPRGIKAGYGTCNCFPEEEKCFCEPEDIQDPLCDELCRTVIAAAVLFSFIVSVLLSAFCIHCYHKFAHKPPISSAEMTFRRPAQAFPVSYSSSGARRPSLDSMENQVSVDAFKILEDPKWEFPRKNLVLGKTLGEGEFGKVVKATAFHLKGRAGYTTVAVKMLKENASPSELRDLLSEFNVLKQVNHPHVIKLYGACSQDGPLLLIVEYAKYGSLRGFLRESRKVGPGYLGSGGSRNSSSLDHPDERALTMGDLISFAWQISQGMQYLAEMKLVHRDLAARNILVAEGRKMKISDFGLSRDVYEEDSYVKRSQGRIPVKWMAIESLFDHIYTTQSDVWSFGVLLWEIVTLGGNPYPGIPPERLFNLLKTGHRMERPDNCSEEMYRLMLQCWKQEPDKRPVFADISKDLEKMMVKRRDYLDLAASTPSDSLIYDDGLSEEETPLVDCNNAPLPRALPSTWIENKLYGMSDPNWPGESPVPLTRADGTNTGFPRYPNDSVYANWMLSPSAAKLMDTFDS
Assay: CellTiter-Glo luminescence assay, inhibitory activity against Ba/F3-KIF5B-RET cell
Assay type: cell-based
Details: 72 h, read-out: Ba/F3-KIF5B-RET cell activity
# satisfied = GI50 below 9 nM (exclusive); not satisfied = GI50 at/above 9 nM

# input-smiles, assigned-label
rows = [
    ("COc1ccc(CN2C3CC2CN(c2ccc(-c4cc(NCC(C)C)cn5ncc(C#N)c45)cn2)C3)cn1", "satisfied"),
]

Prompt: I'd appreciate it if you could check whether `COc1ccc(CN2C3CC2CN(c2cnc(-c4cc(NCc5ccccn5)cn5ncc(C#N)c45)cn2)C3)cn1` has GI50 smaller than 9 nM.
Completion: not satisfied

Prompt: Check `COc1ccc(CN2CCN(c3ccc(-c4cc(OCCN5CC6(COC6)C5)cn5ncc(C#N)c45)cn3)CC2)cn1` too.
Completion: not satisfied

Prompt: Check `COc1ccc(CN2C3CC2CN(c2ccc(-c4cc(Br)cn5ncc(C#N)c45)cn2)C3)cn1` too.
Completion: not satisfied

Prompt: Check `COc1ccc(CN2C3CC2CN(c2cnc(-c4cc(OCCN5CCC6(CCCNC6=O)CC5)cn5ncc(C#N)c45)cn2)C3)cn1` too.
Completion: not satisfied

Prompt: Check `COc1ccc(CN2C3CC2CN(c2cnc(-c4cc(OCCN5C6CCC5COC6)cn5ncc(C#N)c45)cn2)C3)cn1` too.
Completion: satisfied

Prompt: Check `COc1ccc(CN2C3CC2CN(c2ccc(-c4cc(NCC(F)(F)F)cn5ncc(C#N)c45)cn2)C3)cn1` too.
Completion: satisfied
